target: human Proliferating Cell Nuclear Antigen (hPCNA) (human, UniProt P12004); test: SPR
Sequence (P12004 1-259): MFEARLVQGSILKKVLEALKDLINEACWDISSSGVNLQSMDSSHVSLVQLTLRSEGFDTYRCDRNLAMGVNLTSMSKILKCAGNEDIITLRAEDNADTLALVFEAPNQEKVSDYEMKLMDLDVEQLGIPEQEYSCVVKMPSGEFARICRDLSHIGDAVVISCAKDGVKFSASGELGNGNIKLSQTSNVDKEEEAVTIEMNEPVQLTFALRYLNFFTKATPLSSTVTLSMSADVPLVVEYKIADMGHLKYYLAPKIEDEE
No end group written: not given here.
attribute_measured: pKd
Lab note — pKd values are minus log10 of concentrations in M.

Form: binder = KRRQTRITEYFHSKR-NH2 (designed binder) [p21μ–RD2] ; pKd = 8.95

binder KRRQTSMTDYFHSKR-NH2 [p21μ–FY150/151YF] , pKd observed: 8.66

Recorded pKd (binder KRRQRRMTDFYHSKR-NH2 [p21μ–TS145/146RR] ): 8.74

For reference, reported pKd for KRRQRKMTDFYHSKR-NH2 [p21μ–TS145/146RK] stands at 7.76

Recorded pKd (binder KRRQKRMTDFYHSKR-NH2 [p21μ–TS145/146KR] ): 7.43

Recorded pKd (binder KRRQTSITDFYHSKR-NH2 [p21μ–M147I] ): 7.95

# pKd (binder: KRRQTSMTDHYHSKR-NH2 [p21μ–F150H] ) is 6.80

The recorded pKd for KRRNTSMTDFYHSKR-NH2 [p21μ–Q144N] is 6.11

Per the record, KRRDTSMTDFYHSKR-NH2 [p21μ–Q144D] has pKd of 6.15
